Entry source: PubChem BioAssay (EPA / NIEHS)

# Read-out: Vascular cell adhesion molecule 1 (VCAM1), VCAM1 (gene 7412)
# assay method text: BSK_LPS_VCAM1: BioMAP Diversity Plus: LPS Assay for Vascular cell adhesion molecule 1 (VCAM1) Biomarker Activity (AID 2283086)
# assay conditions: primary human HUVEC with PBMC; actives raise or lower the signal
Active and inactive are the calls of the source. The calls were made as follows: active = hit-call score of the fitted dose curve at least 0.9, where 1 is the maximum; inactive = score below 0.9.

[
  {
    "molecular string": "CC1(C)NC(=O)N(c2ccc([N+](=O)[O-])c(C(F)(F)F)c2)C1=O",
    "AC50": "inactive"
  },
  {
    "molecular string": "Cc1cccc2ccccc12",
    "AC50": "inactive"
  },
  {
    "molecular string": "Oc1ccc2ccccc2c1",
    "AC50": "inactive"
  },
  {
    "molecular string": "CN(C)c1ccc(C(=C2C=CC(=[N+](C)C)C=C2)c2ccc(N(C)C)cc2)cc1",
    "AC50": "2.51 µM (active)"
  },
  {
    "molecular string": "Clc1cc(Cl)c2c(c1)N=C1CCCCCN1C2",
    "AC50": "inactive"
  },
  {
    "molecular string": "CN(C[C@@H](CC[N+]12CCC(C3CCCCC3)(CC1)CC2)c1ccc(Cl)c(Cl)c1)C(=O)c1cc(C(F)(F)F)cc(C(F)(F)F)c1",
    "AC50": "31.3 µM (active)"
  },
  {
    "molecular string": "O=C(Nc1ccc(Cl)cc1)Nc1ccc(Cl)c(Cl)c1",
    "AC50": "3.92 µM (active)"
  },
  {
    "molecular string": "Clc1ccccc1C(c1ccccc1)(c1ccccc1)n1ccnc1",
    "AC50": "22.4 µM (active)"
  },
  {
    "molecular string": "O=C(O)Cn1c(=O)n(Cc2ccc(Br)cc2F)c(=O)c2ccc(Cl)cc21",
    "AC50": "inactive"
  },
  {
    "molecular string": "O=C=NCCCCCCN=C=O",
    "AC50": "inactive"
  },
  {
    "molecular string": "Cc1ccc2oc(CN(Cc3ccccc3)C(=O)Nc3c(F)cc(F)cc3F)c(-c3ccc(Cl)cc3)c2c1",
    "AC50": "inactive"
  },
  {
    "molecular string": "O=CCCCC=O",
    "AC50": "33 µM (active)"
  },
  {
    "molecular string": "CCCC(=O)OCCC(C)C",
    "AC50": "inactive"
  },
  {
    "molecular string": "CCOC(=O)O[C@H](C)OC(=O)c1ccc2c(c1)cc(C(=O)NC1CCN(C(C)C)CC1)n2Cc1cc(-c2ccc(Cl)s2)on1",
    "AC50": "6.25 µM (active)"
  },
  {
    "molecular string": "O=C1c2ccccc2C(=O)N1CCc1noc(-c2ccc(CN3CCCCCC3)s2)n1",
    "AC50": "inactive"
  },
  {
    "molecular string": "CCCCOC(=O)CC(CC(=O)OCCCC)(OC(C)=O)C(=O)OCCCC",
    "AC50": "inactive"
  },
  {
    "molecular string": "Cc1oc2c(NC(=O)c3c(Cl)cccc3Cl)cccc2c1C(C)(C)O",
    "AC50": "inactive"
  },
  {
    "molecular string": "CC(C)(C)c1csc(-c2cc3cc(OCc4ccccc4CC(=O)O)ccc3o2)n1",
    "AC50": "18.8 µM (active)"
  },
  {
    "molecular string": "CCCCOC(=O)c1ccc(O)cc1",
    "AC50": "inactive"
  },
  {
    "molecular string": "O=c1[nH]sc2ccccc12",
    "AC50": "9.14 µM (active)"
  },
  {
    "molecular string": "COc1cc(C(=O)NC2CCN(C)CC2)ccc1Nc1ncc2c(n1)N(C1CCCC1)CC(F)(F)C(=O)N2C",
    "AC50": "11.2 µM (active)"
  },
  {
    "molecular string": "Cc1cn([C@H]2C[C@H](N=[N+]=[N-])[C@@H](CO)O2)c(=O)[nH]c1=O",
    "AC50": "inactive"
  },
  {
    "molecular string": "CCCCCCCCN(C)CCCCCCCC",
    "AC50": "inactive"
  }
]

---

# Read-out: Plasminogen activator inhibitor-1 (PAI1), SERPINE1 (gene 5054)
# assay method text: BSK_BE3C_PAI1: BioMAP Diversity Plus: BE3C Assay for Plasminogen activator inhibitor-1 (PAI1) Biomarker Activity (AID 2283037)
# assay conditions: primary human bronchial epithelial cells; actives raise or lower the signal
The source made the active and inactive calls. How the source made its calls: active means hit-call score of the fitted dose curve at least 0.9, where 1 is the maximum; inactive means score below 0.9.
Classes used: 1 = active, -1 = inactive

[
  {
    "molecular string": "Cc1cccc2ccccc12",
    "assigned label": -1
  },
  {
    "molecular string": "Clc1ccccc1C(c1ccccc1)(c1ccccc1)n1ccnc1",
    "assigned label": 1
  },
  {
    "molecular string": "c1ccc2ccccc2c1",
    "assigned label": -1
  },
  {
    "molecular string": "O=C(OCCCCCCOC(=O)c1ccccc1)c1ccccc1",
    "assigned label": -1
  },
  {
    "molecular string": "O=C1O[C@H]([C@@H](O)CO)C(O)=C1O",
    "assigned label": -1
  },
  {
    "molecular string": "CC(=O)N1CCN(c2ccc(OC[C@H]3CO[C@](Cn4ccnc4)(c4ccc(Cl)cc4Cl)O3)cc2)CC1",
    "assigned label": -1
  },
  {
    "molecular string": "CCCOC(=O)c1cc(O)c(O)c(O)c1",
    "assigned label": -1
  }
]

---

# Read-out: Cytochrome P450 7A1 (Homo sapiens)
# assay method text: LTEA_HepaRG_CYP7A1: Life Technologies and Expression Analysis (LTEA) Assay for Cytochrome P450 7A1 (CYP7A1) using HepaRG (AID 2283496)
# assay conditions: mRNA level, 48 h; actives raise or lower the signal
Active and inactive are the calls of the source. The calls were made as follows: active = hit-call score of the fitted dose curve at least 0.9, where 1 is the maximum; inactive = score below 0.9.
Classes used: TRUE = active, FALSE = inactive

[
  {
    "compound": "Cc1cccc2ccccc12",
    "assigned label": "FALSE"
  },
  {
    "compound": "Cc1ccc2oc(CN(Cc3ccccc3)C(=O)Nc3c(F)cc(F)cc3F)c(-c3ccc(Cl)cc3)c2c1",
    "assigned label": "TRUE"
  },
  {
    "compound": "OC12N=C(c3ccccc3)SC1Cc1cc(Cl)ccc12 (stereo not given)",
    "assigned label": "TRUE"
  },
  {
    "compound": "CC[C@@H]1C[C@H](N(Cc2cc(C(F)(F)F)cc(C(F)(F)F)c2)C(C)=O)c2cc(C(F)(F)F)ccc2N1C(=O)OC(C)C",
    "assigned label": "FALSE"
  },
  {
    "compound": "O=C1c2ccccc2C(=O)N1CCc1noc(-c2ccc(CN3CCCCCC3)s2)n1",
    "assigned label": "FALSE"
  },
  {
    "compound": "c1ccc2ccccc2c1",
    "assigned label": "FALSE"
  },
  {
    "compound": "CC1(C)NC(=O)N(c2ccc([N+](=O)[O-])c(C(F)(F)F)c2)C1=O",
    "assigned label": "TRUE"
  },
  {
    "compound": "CC(C)(C)c1cc(/C=C2\\SC(N)=NC2=O)cc(C(C)(C)C)c1O",
    "assigned label": "TRUE"
  },
  {
    "compound": "CCCCCCCCOc1ccc(C(=O)c2ccccc2)c(O)c1",
    "assigned label": "FALSE"
  },
  {
    "compound": "COc1cc(C(=O)NC2CCN(C)CC2)ccc1Nc1ncc2c(n1)N(C1CCCC1)CC(F)(F)C(=O)N2C",
    "assigned label": "TRUE"
  }
]

---

# target desc: Bile acid receptor (Homo sapiens)
# assay method text: ATG_FXR_TRANS: Attagene TRANS-FACTORIAL HepG2 Assay for Farnesoid X Receptor (FXR) (AID 2282979);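 also: hits raise reporter mRNA above DMSO so AC50 marks FXR activation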
# assay conditions: HepG2 Attagene TRANS FXR-GAL4 reporter transcription
Inconclusive results are not listed. Calls of active or inactive are those of the source. Rule for the calls: active = hit-call score of the fitted dose curve at least 0.9, where 1 is the maximum; inconclusive = response in the unintended direction; inactive = score below 0.9.
Classes used: 1 (active), 0 (inactive)

[
  {
    "compound": "CN(C)C(=O)C1(N2CCCCC2)CCN(CC[C@@]2(c3ccc(Cl)c(Cl)c3)CN(C(=O)c3ccccc3)CCO2)CC1",
    "assigned label": 0
  },
  {
    "compound": "O=C1c2ccccc2C(=O)N1CCc1noc(-c2ccc(CN3CCCCCC3)s2)n1",
    "assigned label": 0
  },
  {
    "compound": "CCN(Cc1cccnc1)C(=O)c1cccc(Cl)c1[C@]1(C)C(=O)N(Cc2ccc(OC)cc2OC)c2ccc(Cl)cc21",
    "assigned label": 1
  },
  {
    "compound": "O=C(Nc1ccc(Cl)cc1)Nc1ccc(Cl)c(Cl)c1",
    "assigned label": 0
  },
  {
    "compound": "Cc1ncc(CO)c(CO)c1O",
    "assigned label": 0
  },
  {
    "compound": "c1ccc(C[n+]2cccc3ccccc32)cc1",
    "assigned label": 0
  },
  {
    "compound": "COc1cccc([C@H](O)C2CCN(CCc3ccc(F)cc3)CC2)c1OC",
    "assigned label": 0
  },
  {
    "compound": "OC12N=C(c3ccccc3)SC1Cc1cc(Cl)ccc12 (stereo unspecified)",
    "assigned label": 0
  },
  {
    "compound": "O=C1CCC(C2CCCCC2)CC1",
    "assigned label": 0
  },
  {
    "compound": "NC(=O)c1nc(-c2cccc(-c3cc(F)ccc3OCC(F)(F)C(F)(F)F)c2)n[nH]1",
    "assigned label": 0
  },
  {
    "compound": "CCCCCCCCCCCC[N+](C)(C)C",
    "assigned label": 0
  },
  {
    "compound": "O=C(O)Cn1c(=O)n(Cc2ccc(Br)cc2F)c(=O)c2ccc(Cl)cc21",
    "assigned label": 0
  },
  {
    "compound": "O=C(O)Cc1cc(I)c(Oc2ccc(O)c(I)c2)c(I)c1",
    "assigned label": 0
  },
  {
    "compound": "Cc1cn([C@H]2C[C@H](N=[N+]=[N-])[C@@H](CO)O2)c(=O)[nH]c1=O",
    "assigned label": 0
  },
  {
    "compound": "COCC(C)OCC(C)OCC(C)O (stereo unspecified)",
    "assigned label": 0
  },
  {
    "compound": "O=c1c(-c2ccc(O)cc2)coc2cc(O)cc(O)c12",
    "assigned label": 0
  },
  {
    "compound": "CN1C(=O)N(c2ccccc2Br)Cc2cnc(Nc3ccc4c(c3)OCC(CO)O4)nc21 (stereo unspecified)",
    "assigned label": 0
  },
  {
    "compound": "O=C=NCCCCCCN=C=O",
    "assigned label": 0
  },
  {
    "compound": "Cc1c2ccccc2c(C)c2c1ccc1ccccc12",
    "assigned label": 0
  },
  {
    "compound": "CCO[Si](CCCNC(N)=O)(OCC)OCC",
    "assigned label": 0
  },
  {
    "compound": "COc1ccc2cc(S(=O)(=O)N[C@H](CC(=O)N[C@H](Cc3ccc(CN4[C@H](C)CCC[C@@H]4C)cc3)C(=O)N(C)C(C)C)c3ccc4c(c3)OCO4)ccc2c1",
    "assigned label": 0
  }
]
